experiment-summary: IUF_NPC2-5_cytotoxicity_120hr: Cytotoxicity Assessment at 120 hours in the Leibniz Research Institute for Environmental Medicine (IUF) Neural Progenitor Cell Migration and Differentiation Assay (NPC2-5) (AID 2284307);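 for AC50: LDH released into supernatant as membrane damage marker via resorufin fluorescence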
Active and inactive are the calls of the source. Rule for the calls: active = hit-call score of the fitted dose curve at least 0.9, where 1 is the maximum; inconclusive = response in the unintended direction; inactive = score below 0.9.
experimental-endpoint: AC50

Check out these entries, answers already filled in.
{"molecule": "COP(=S)(OC)Oc1nc(Cl)c(Cl)cc1Cl", "AC50": "inactive"}
{"molecule": "CCCCC(CC)COC(=O)c1ccccc1C(=O)OCC(CC)CCCC (stereo not drawn)", "AC50": "inactive"}
{"molecule": "N#Cc1nn(-c2c(Cl)cc(C(F)(F)F)cc2Cl)c(N)c1S(=O)C(F)(F)F (stereo not drawn)", "AC50": "inactive"}
{"molecule": "COC(=O)N(OC)c1ccccc1COc1ccn(-c2ccc(Cl)cc2)n1", "AC50": "2.12 µM (active)"}
{"molecule": "CCOC(=O)CC(SP(=S)(OC)OC)C(=O)OCC (stereo not drawn)", "AC50": "inactive"}
{"molecule": "Cc1ccc(-c2c(Cl)nc(C#N)n2S(=O)(=O)N(C)C)cc1", "AC50": "33 µM (active)"}
{"molecule": "CNC(=O)ON=CC(C)(C)SC", "AC50": "inactive"}

Now take the following molecule into account.
INPUT: # query: AC50 of entry CN(C)C(=S)SSC(=S)N(C)C
OUTPUT: 13 µM (active)
